Molecular target: IL-21 (interleukin-21) (Homo sapiens, UniProt Q9HBE4 SEQ:25-162)
Sequence (Q9HBE4 25-162): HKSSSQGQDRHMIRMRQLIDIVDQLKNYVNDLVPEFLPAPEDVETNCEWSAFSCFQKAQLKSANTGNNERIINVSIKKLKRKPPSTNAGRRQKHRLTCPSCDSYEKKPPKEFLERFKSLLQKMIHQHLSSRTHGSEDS
Test: cell_activity; 10 nM aptamer
Settings: tags: PeproTech
Think of 40 % inhibition as a floor: if activity stands on it or above, it is YES; beneath it, NO.

Assess whether reported activity for GGACCUCCAACACGCGACUACUCGUGAUUGCCCGUCC (ssRNA, 2'-F all pyrimidines) [SEQ40] sits at 40 % inhibition or higher. YES

***
In plain terms: is recorded activity at least 40 % inhibition for GGACCUUCAACACGCGACUACUCGUGAUUGCACGUCC (ssRNA, 2'-F all pyrimidines) [SEQ43] ? YES

hey, is activity for this one >= 40 % inhibition? GGACCUUCAACACGCGACGACUCGUGAUUGCCCGUCC (ssRNA, 2'-F all pyrimidines) [SEQ41] NO

API: above_or_equal(metric=activity, cutoff=40 % inhibition) for item GGACCGUCAACACGCGACUACUCGUGAUUGCCCGUCC (ssRNA, 2'-F all pyrimidines) [SEQ39] YES
